Biological target: T1, 4H2238-AA
T1 chain: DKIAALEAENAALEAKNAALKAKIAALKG
Assay: two-hybrid library CCmax;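 further: natural log of median RNA to DNA barcode read ratio; higher means stronger binding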
Conditions: mean of both orientations
For each of the binders below, state its interaction score.
Please state the value as a number alone, without comment.

Which interaction score reading was recorded for the binder DENAALEAKIAALKAKNAALKAKIAALEG [4H1405-AA] ?
-1.22

Please do the same for DENAALEAEIAALKAEIAALKAKNAALEG [4H1103-AA] as well.
-1.65

Please do the same for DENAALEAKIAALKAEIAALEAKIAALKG [4H1350-AA] as well.
-1.14

Please do the same for DKIAALEAENAALEAKIAALEAENAALEG [4H2211-AA] as well.
-1.07

Data origin: paper PMC10397247
